All figures here come from patent US12590062B2.

# key: entry, value: EC50
Target: PD-1/PD-L1 interaction (Homo sapiens)
Construct: expressed in transfected cells; host or cells: CHO cells (aAPC-PD-L1) co-cultured with Jurkat cells overexpressing PD-1 and an NFAT-luciferase reporter
Sequence (Q9NZQ7 19-290): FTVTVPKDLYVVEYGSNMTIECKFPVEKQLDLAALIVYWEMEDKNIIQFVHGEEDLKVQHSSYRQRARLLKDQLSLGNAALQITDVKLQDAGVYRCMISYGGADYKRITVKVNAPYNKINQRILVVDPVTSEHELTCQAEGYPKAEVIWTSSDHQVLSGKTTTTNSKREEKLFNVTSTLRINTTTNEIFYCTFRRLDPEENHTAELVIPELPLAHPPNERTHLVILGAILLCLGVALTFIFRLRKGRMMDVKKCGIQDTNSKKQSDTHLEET
Experiment: PD-1/PD-L1 NFAT reporter co-culture assay
Assay type: cell-based
Settings: Jurkat PD-1 NFAT-luciferase cells co-cultured with aAPC-PD-L1 CHO cells, 6 hrs at 37° C.; read-out: EC50 NFAT Luciferase

| molecule | system | EC50 (nM) |
| --- | --- | --- |
| COc1nc(OCc2cccc(-c3cccc(COc4nc(OC)c(CN[C@H]5CCC[C@@H](C(=O)O)C5)cc4Cl)c3C)c2C)c(Cl)cc1CN[C@H]1CCC[C@@H](C(=O)O)C1 | PD-1/PD-L1 interaction (Homo sapiens) | 1390 |
| Cc1c(COc2cc(OCc3cncc(C#N)c3)c(CNC(C)(C)C(=O)O)cc2Cl)cccc1-c1cccc(-c2ccc(CN(C)C)cc2)c1Br | PD-1/PD-L1 interaction (Homo sapiens) | 47 |
| Cc1c(COc2cc(OCc3cncc(C#N)c3)c(CNC(C)(CO)C(=O)O)cc2Cl)cccc1-c1cccc(-c2ccc(CN3CC4(CNC4)C3)cc2)c1C (centres unmarked) | PD-1/PD-L1 interaction (Homo sapiens) | 472 |
| COc1nc(-c2cccc(-c3cccc4c3CC[C@@H]4Oc3nc(OC)c(CN4CC[C@H](C(=O)O)C4)cc3Cl)c2Cl)ccc1CN1CC(C)(CO)C1 | PD-1/PD-L1 interaction (Homo sapiens) | 34 |
| COc1nc(OCc2cccc(-c3cccc(COc4ccc(CNC[C@@H](O)CC(=O)O)c(OC)n4)c3Cl)c2Cl)ccc1CNC[C@@H](O)CC(=O)O | PD-1/PD-L1 interaction (Homo sapiens) | 3200 |
| COc1nc(O[C@H]2CCc3c(-c4cccc(-c5cc(C)c(CNC[C@@H]6CCC(=O)N6)c(OC)n5)c4Cl)cccc32)c(Cl)cc1CN1CC(C(=O)O)C1 | PD-1/PD-L1 interaction (Homo sapiens) | 16 |
| Cc1c(COc2cc(OCC3CCOC3)c(CNC[C@@H](O)CC(=O)O)cc2Cl)cccc1-c1cccc(COc2cc(OCC3CCOC3)c(CNC[C@@H](O)CC(=O)O)cc2Cl)c1C (some centres unmarked) | PD-1/PD-L1 interaction (Homo sapiens) | 592 |
| C[C@@](CO)(NCc1ccc(O[C@H]2CCc3c(-c4cccc5c4CC[C@@H]5Oc4nc(OCc5cncc(C#N)c5)c(CN[C@@](C)(CO)C(=O)O)cc4Cl)cccc32)cc1)C(=O)O | PD-1/PD-L1 interaction (Homo sapiens) | 625 |
| Cc1c(COc2cc(OCc3cncc(C#N)c3)c(CNC[C@@H](O)CC(=O)O)cc2Cl)cccc1-c1cccc(-c2ccc(CNCc3cncc(C#N)c3)cc2)c1C | PD-1/PD-L1 interaction (Homo sapiens) | 439 |
| N#Cc1cncc(COc2cc(OCc3cccc(-c4cccc(COc5cc(OCc6cncc(C#N)c6)c(CNC[C@@H](O)CC(=O)O)cc5Cl)c4Br)c3Br)c(Cl)cc2CNC[C@@H](O)CC(=O)O)c1 | PD-1/PD-L1 interaction (Homo sapiens) | 45 |
| CNC(=O)COc1nc(O[C@H]2CCc3c(-c4cccc(-c5ccc(OCCNC[C@@H](O)CC(=O)O)cc5)c4C)cccc32)c(Br)cc1CNC[C@@H](O)CC(=O)O | PD-1/PD-L1 interaction (Homo sapiens) | 434 |
